Reference for the values: patent US20260256925A1

Each entry below carries its recorded DC50.
Target: ER (Homo sapiens)
Construct: endogenous in cells; probably T47D or MCF-7
Assay: Western blot analysis (compounds B1-B126)
Format: cell-based
Settings: ER degradation, read-out: Traditional Western Degradation potency (DC50)
Text: Western Blot Analysis. […] The blots are scanned, and the band intensities are quantified (e.g., by using GelQuant.NET software provided by biochemlabsolutions.com). […] Western Blot Analysis. […] The blots were scanned, and the band intensities were quantified using GelQuant.NET software provided by biochemlabsolutions.com. […]

For orientation, consider the following solved cases.
C[C@@H]1Cc2c(ccc3[nH]ncc23)[C@@H](c2c(F)cc(N3CCC(CN4CCC(N5Cc6cc7c(cc6C5)C(=O)N(C5CCC(=O)NC5=O)C7=O)CC4)CC3)cc2F)N1CC(F)F (stereo partly drawn) : 10 to 100 nM
C[C@@H]1Cc2c(ccc3[nH]ncc23)[C@@H](c2c(F)cc(N3CCC(CN4CCN(c5ccc6c(c5)CN(C5CCC(=O)NC5=O)C6=O)CC4)CC3)cc2F)N1CC(F)F (stereo partly drawn) : < 10 nM

Turning to the following compound.
[ask] Find the recorded DC50 belonging to COc1c2c(cc3c1C(=O)N(C1CCC(=O)NC1=O)C3=O)CN(CC(=O)N1CCC3(CC1)CCN(c1cc(F)c([C@@H]4c5ccc6[nH]ncc6c5C[C@@H](C)N4CC(F)F)c(F)c1)CC3)C2 (stereo partly drawn) and report it.
[reply] < 10 nM

----------
Each entry below carries its recorded DC50.
target: ER (Homo sapiens); construct: endogenous in cells; probably T47D or MCF-7; assay: In-cell Western (ICW) ER degradation assay in MCF-7 cells; assay type: cell-based; settings: MCF-7 cells, 16 hrs; read-out: ER MCF7 ICW DC50

For orientation, consider the following solved cases.
C[C@H]1Cc2c(ccc3[nH]ncc23)[C@H](c2ccc(N3CCC4(CC3)CC(CN3CCN5c6cc7c(cc6OC[C@@H]5C3)C(=O)N([C@@H]3CCC(=O)NC3=O)C7)C4)cn2)N1CC1(F)CC1 (stereo in doubt) : < 1 nM
C[C@@H]1Cc2c(ccc3[nH]ncc23)[C@@H](c2ccc(N3CCC(CN4CCN5c6cc7c(cc6OC[C@@H]5C4)C(=O)N([C@H]4CCC(=O)NC4=O)C7)CC3)nc2)N1CC(F)(F)F : < 1 nM

Turning to the following molecule.
[ask] Find the recorded DC50 belonging to C[C@@H]1Cc2c(ccc3[nH]ncc23)[C@@H](c2ccc(N3CC4(CCC(CN5CCN6c7ccc8c(c7OC[C@H]6C5)CN([C@H]5CCC(=O)NC5=O)C8=O)CC4)C3)cn2)N1CC1(F)CC1 and report it.
[reply] < 1 nM

----------
Each entry below carries its recorded DC50.
molecular target: ER (Homo sapiens, UniProt P03372); construct: endogenous in cells; probably T47D or MCF-7; assay: In-cell Western (ICW) ER degradation assay in MCF-7 cells; format: cell-based; conditions: MCF-7 cells, 16 hrs; read-out: ER MCF7 ICW DC50

C[C@H]1Cc2c(ccc3[nH]ncc23)[C@H](c2ccc(N3CCC4(CC3)CC(CN3CCN(c5ccc(C(=O)NC6CCC(=O)NC6=O)nc5)CC3)C4)cn2)N1CC(F)(F)F (stereo in doubt) : < 1 nM
COc1cc(N2CCC(CN3CCN4c5ccc6c(c5OCC4C3)CN(C3CCC(=O)NC3=O)C6=O)CC2)ccc1C1c2ccc3[nH]ncc3c2CC(C)N1CC(F)F (stereo in doubt) : < 1 nM
C[C@H]1Cc2c(ccc3[nH]ncc23)[C@H](c2ccc(N3CCC4(CC3)CC(CN3CCC(c5ccc(NC6CCC(=O)NC6=O)cc5)CC3)C4)cn2)N1CC(F)(F)F (stereo in doubt) : < 1 nM

[ask] Find the recorded DC50 belonging to C[C@@H]1Cc2c(ccc3[nH]ncc23)[C@H](c2ccc(N3CCC(CN4CCN5c6ccc7c(c6OC[C@H]5C4)CN([C@H]4CCC(=O)NC4=O)C7=O)CC3)nc2)N1CC(F)(F)F and report it.
[reply] < 1 nM

[ask] Item: C[C@@H]1Cc2c(ccc3[nH]ncc23)[C@@H](c2ccc(N3CC4(CCC(CN5CCN6c7ccc8c(c7OC[C@H]6C5)CN([C@H]5CCC(=O)NC5=O)C8=O)CC4)C3)nc2)N1CC(F)(F)F
[reply] < 1 nM

[ask] Item: C[C@@H]1Cc2c(ccc3[nH]ncc23)[C@@H](c2ccc(N3CCC4(CC3)CC(CN3CCN5c6cc7c(cc6OC[C@H]5C3)C(=O)N([C@@H]3CCC(=O)NC3=O)C7)C4)cn2)N1CC1(F)CC1
[reply] < 1 nM

[ask] Item: C[C@@H]1Cc2c(ccc3[nH]ncc23)[C@@H](c2c(F)cc(N3CCC(CN4CCN5c6ccc7c(c6OC[C@@H]5C4)CN(C4CCC(=O)NC4=O)C7=O)CC3)cc2F)N1CC(F)F (stereo partly drawn)
[reply] < 1 nM

[ask] Item: C[C@@H]1Cc2c(ccc3[nH]ncc23)[C@@H](c2ccc(N3CCC4(CC3)CC(CN3CCN5c6cc7c(cc6OC[C@@H]5C3)C(=O)N([C@@H]3CCC(=O)NC3=O)C7)C4)cn2)N1CC1(F)CC1
[reply] < 1 nM

[ask] Item: C[C@H]1Cc2c(ccc3[nH]ncc23)[C@@H](c2ccc(N3CC4(CCC(CN5CCN6c7ccc8c(c7OC[C@@H]6C5)CN([C@@H]5CCC(=O)NC5=O)C8=O)CC4)C3)nc2)N1CC(F)(F)F (stereo in doubt)
[reply] 1 to 10 nM

----------
Target: ER (Homo sapiens, UniProt P03372)
Construct: endogenous in cells; probably T47D or MCF-7
Test: Western blot analysis (compounds B1-B126)
Format: cell-based
Details: ER degradation, read-out: Traditional Western Degradation potency (DC50)
Source text: Western Blot Analysis. […] The blots are scanned, and the band intensities are quantified (e.g., by using GelQuant.NET software provided by biochemlabsolutions.com). […] Western Blot Analysis. […] The blots were scanned, and the band intensities were quantified using GelQuant.NET software provided by biochemlabsolutions.com. […]
Each entry below carries its recorded DC50.

For orientation, consider the following solved cases.
C[C@@H]1Cc2c(ccc3[nH]ncc23)[C@@H](c2c(F)cc(N3CCC4(CCN(CC(=O)N5Cc6cc7c(cc6C5)C(=O)N(C5CCC(=O)NC5=O)C7=O)CC4)CC3)cc2F)N1CC(F)F (stereo partly shown) [Compound B5] : 10 to 100 nM
C[C@@H]1Cc2c(ccc3[nH]ncc23)[C@@H](c2c(F)cc(N3CCC(C(=O)N4CCC(N5Cc6cc7c(cc6C5)C(=O)N(C5CCC(=O)NC5=O)C7=O)CC4)CC3)cc2F)N1CC(F)F (stereo partly shown) [Compound B6] : < 10 nM
C[C@@H]1Cc2c(ccc3[nH]ncc23)[C@@H](c2c(F)cc(N3CCC4(CCN(C(=O)CN5Cc6cc7c(cc6C5)C(=O)N(C5CCC(=O)NC5=O)C7=O)CC4)C3)cc2F)N1CC(F)F (stereo partly shown) [Compound B12] : 10 to 100 nM
C[C@@H]1Cc2c(ccc3[nH]ncc23)[C@@H](c2c(F)cc(N3CCC(CN4CCN(c5cc6c(cc5F)C(=O)N(C5CCC(=O)NC5=O)C6=O)CC4)CC3)cc2F)N1CC(F)F (stereo partly shown) [Compound B66] : 10 to 100 nM
C[C@@H]1Cc2c(ccc3[nH]ncc23)[C@@H](c2c(F)cc(NC3CN(C(=O)[C@H]4CC[C@H](N5Cc6cc7c(cc6C5)C(=O)N(C5CCC(=O)NC5=O)C7=O)CC4)C3)cc2F)N1CC(F)F (stereo partly shown) [Compound B24] : 10 to 100 nM
C[C@@H]1Cc2c(ccc3[nH]ncc23)[C@@H](c2c(F)cc([C@H]3CC[C@H](C(=O)N4CCC(N5Cc6cc7c(cc6C5)C(=O)N(C5CCC(=O)NC5=O)C7=O)CC4)CC3)cc2F)N1CC(F)F (stereo partly shown) [Compound B2] : < 10 nM
C[C@@H]1Cc2c(ccc3[nH]ncc23)[C@@H](c2c(F)cc(N3CCC(C(=O)N4C5CCC4CC(N4Cc6cc7c(cc6C4)C(=O)N(C4CCC(=O)NC4=O)C7=O)C5)CC3)cc2F)N1CC(F)F (stereo partly shown) [Compound B103] : > 100 nM
C[C@@H]1Cc2c(ccc3[nH]ncc23)[C@@H](c2c(F)cc(N3CCC(CN4CCC(N5Cc6cc7c(cc6C5=O)CN(C5CCC(=O)NC5=O)C7=O)CC4)CC3)cc2F)N1CC(F)F (stereo partly shown) [Compound B19] : < 10 nM

[ask] Find the recorded DC50 belonging to C[C@@H]1Cc2c(ccc3[nH]ncc23)[C@@H](c2c(F)cc([C@H]3CC[C@H](C(=O)N4CC(CN5Cc6cc7c(cc6C5)C(=O)N(C5CCC(=O)NC5=O)C7=O)C4)CC3)cc2F)N1CC(F)F (stereo partly shown) [Compound B3] and report it.
[reply] > 100 nM

[ask] Item: C[C@@H]1Cc2c(ccc3[nH]ncc23)[C@@H](c2c(F)cc(N3CCC(CN4CCN5c6ccc7c(c6OCC5C4)CN(C4CCC(=O)NC4=O)C7=O)CC3)cc2F)N1CC(F)F (mixture of isomers) [Compound B104]
[reply] 10 to 100 nM
